Test system: PC-3
Assay: NCI tumour cell line growth inhibition, 48 h
Active and inactive are the calls of the source. Cut-off read from the data, not from the text of the source: active = GI50 up to about 1.1 µM and inactive = higher.
Could you please pick one outcome from this set? active, inactive

Query string: Please indicate how the test categorized CN(C)/C=C/c1ccncc1 .
Result string: inactive

Query string: Please indicate how the test categorized COc1c(-c2cc(C)c(Cl)c(=O)[nH]2)c(O)c(OC)c2occc12 .
Result string: inactive

Query string: Please indicate how the test categorized c1ccc2oc(-c3ccc(-c4nc5ccccc5o4)c4c3CC4)nc2c1 .
Result string: inactive

Query string: Please indicate how the test categorized CN(C)Nc1cc(=O)[nH]c(=O)[nH]1 .
Result string: inactive

Query string: Please indicate how the test categorized O=C(NNC(=S)NCc1ccccc1)C12CC3CC(CC(C3)C1)C2 .
Result string: inactive

Query string: Please indicate how the test categorized CCCCCCCC(=O)OC[n+]1ccc(-c2c(COC(=O)NC(C)C)c(COC(=O)NC(C)C)c3n2CCC3)cc1 .
Result string: inactive

Query string: Please indicate how the test categorized O=C(CC(C(=O)c1ccsc1)c1cccs1)c1ccsc1 (configuration not stated) .
Result string: inactive

Query string: Please indicate how the test categorized N#Cc1c(N)nc2[nH]nc(N)c2c1-c1ccccc1 .
Result string: inactive

Query string: Please indicate how the test categorized OC1COC(n2c3ccc(Br)cc3c3ccc4c5ccccc5[nH]c4c32)C(O)C1O (configuration not stated) .
Result string: inactive

Query string: Please indicate how the test categorized COc1cc2c3c(c4ccc(OC)c(OC)c4c2cc1OC)CN1CCC[C@@H]1C3 .
Result string: active

Query string: Please indicate how the test categorized O=C(Nc1ccc(N2C(=O)CSC2c2cccs2)cc1)c1ccc(N2C(=O)CSC2c2cccs2)cc1 (configuration not stated) .
Result string: inactive

Query string: Please indicate how the test categorized Cc1noc(C)c1/N=N/c1ccc2nonc2c1N .
Result string: inactive

Query string: Please indicate how the test categorized CCOc1ccc2c(c1)NC(=O)C(C1OC(c3ccccc3)=CC1=O)S2 (configuration not stated) .
Result string: inactive

Query string: Please indicate how the test categorized NCS(=O)(=O)O .
Result string: inactive

Query string: Please indicate how the test categorized COc1ccc2c(c1)N=C1CSC(c3ccccc3Cl)N1C2 (configuration not stated) .
Result string: inactive

Query string: Please indicate how the test categorized COc1cccc(Nc2nc3c([nH]2)c(=O)n(C)c(=O)n3C)c1 .
Result string: inactive

Query string: Please indicate how the test categorized COc1cc(/C=N/n2c(-c3ccccc3)nn(C(C)=O)c2=O)cc(OC)c1OC .
Result string: inactive

Query string: Please indicate how the test categorized COc1ccc(OC)c(N2C(=O)/C(=C\c3ccccc3)SC2c2cc(OC)c(OC)c(OC)c2)c1 (configuration not stated) .
Result string: inactive

Query string: Please indicate how the test categorized COC(=O)C1CCC(=O)N1CN(C(C)=O)c1cc(OC)ccc1OC (configuration not stated) .
Result string: inactive

Query string: Please indicate how the test categorized CCOC(=O)c1csc(NC(=O)CCCC#N)n1 .
Result string: inactive

Query string: Please indicate how the test categorized Cc1c(-c2ccccc2)n(C)c2cn[nH]c(=O)c12 .
Result string: inactive

Query string: Please indicate how the test categorized COC1C=COC2(C)Oc3c(C)c(O)c4c(c3C2=O)/C(=N/C2CCC(O)OC2C)C=C(NC(=O)/C(C)=C\C(=O)C2CC2C(O)C(C)C(O)C(C)C(OC(C)=O)C1C)C4=O (configuration not stated) .
Result string: inactive
